System: HS-18
Test: SRB cytotoxicity assay and Chou-Talalay combination index, HS-18
Format: cell-based, human
Conditions: Homo sapiens, 72 h; read-out: IC50 for human soft tissue sarcoma cells, HS-18
QUANTITY KIND: IC50 (µM)

[
  {
    "COMPOUND": "CC(=O)O[C@H]1C(=O)[C@@]2(C)[C@H]([C@H](OC(=O)c3ccccc3)[C@]3(O)C[C@H](OC(=O)[C@H](O)[C@@H](NC(=O)c4ccccc4)c4ccccc4)C(C)=C1C3(C)C)[C@]1(OC(C)=O)CO[C@@H]1C[C@@H]2O [Paclitaxel]",
    "READOUT UNIT": "µM",
    "NUMERIC READOUT": 0.01
  },
  {
    "COMPOUND": "COc1cc(NCc2ccc3nc(N)nc(N)c3c2C)cc(OC)c1OC [TMTX, trimetrexate]",
    "READOUT UNIT": "µM",
    "NUMERIC READOUT": 70
  },
  {
    "COMPOUND": "COc1cccc2c1C(=O)c1c(O)c3c(c(O)c1C2=O)C[C@@](O)(C(=O)CO)C[C@@H]3O[C@H]1C[C@H](N)[C@H](O)[C@H](C)O1 [Dx, doxorubicin]",
    "READOUT UNIT": "µM",
    "NUMERIC READOUT": 0.225
  }
]
